ASSAYED_SYSTEM: T1, MET Proto-Oncogene, Receptor Tyrosine Kinase (MET), on cells (human, UniProt P08581 25-1390)
T1 construct: also called cMET; c-Met
T1 sequence (P08581 25-1390): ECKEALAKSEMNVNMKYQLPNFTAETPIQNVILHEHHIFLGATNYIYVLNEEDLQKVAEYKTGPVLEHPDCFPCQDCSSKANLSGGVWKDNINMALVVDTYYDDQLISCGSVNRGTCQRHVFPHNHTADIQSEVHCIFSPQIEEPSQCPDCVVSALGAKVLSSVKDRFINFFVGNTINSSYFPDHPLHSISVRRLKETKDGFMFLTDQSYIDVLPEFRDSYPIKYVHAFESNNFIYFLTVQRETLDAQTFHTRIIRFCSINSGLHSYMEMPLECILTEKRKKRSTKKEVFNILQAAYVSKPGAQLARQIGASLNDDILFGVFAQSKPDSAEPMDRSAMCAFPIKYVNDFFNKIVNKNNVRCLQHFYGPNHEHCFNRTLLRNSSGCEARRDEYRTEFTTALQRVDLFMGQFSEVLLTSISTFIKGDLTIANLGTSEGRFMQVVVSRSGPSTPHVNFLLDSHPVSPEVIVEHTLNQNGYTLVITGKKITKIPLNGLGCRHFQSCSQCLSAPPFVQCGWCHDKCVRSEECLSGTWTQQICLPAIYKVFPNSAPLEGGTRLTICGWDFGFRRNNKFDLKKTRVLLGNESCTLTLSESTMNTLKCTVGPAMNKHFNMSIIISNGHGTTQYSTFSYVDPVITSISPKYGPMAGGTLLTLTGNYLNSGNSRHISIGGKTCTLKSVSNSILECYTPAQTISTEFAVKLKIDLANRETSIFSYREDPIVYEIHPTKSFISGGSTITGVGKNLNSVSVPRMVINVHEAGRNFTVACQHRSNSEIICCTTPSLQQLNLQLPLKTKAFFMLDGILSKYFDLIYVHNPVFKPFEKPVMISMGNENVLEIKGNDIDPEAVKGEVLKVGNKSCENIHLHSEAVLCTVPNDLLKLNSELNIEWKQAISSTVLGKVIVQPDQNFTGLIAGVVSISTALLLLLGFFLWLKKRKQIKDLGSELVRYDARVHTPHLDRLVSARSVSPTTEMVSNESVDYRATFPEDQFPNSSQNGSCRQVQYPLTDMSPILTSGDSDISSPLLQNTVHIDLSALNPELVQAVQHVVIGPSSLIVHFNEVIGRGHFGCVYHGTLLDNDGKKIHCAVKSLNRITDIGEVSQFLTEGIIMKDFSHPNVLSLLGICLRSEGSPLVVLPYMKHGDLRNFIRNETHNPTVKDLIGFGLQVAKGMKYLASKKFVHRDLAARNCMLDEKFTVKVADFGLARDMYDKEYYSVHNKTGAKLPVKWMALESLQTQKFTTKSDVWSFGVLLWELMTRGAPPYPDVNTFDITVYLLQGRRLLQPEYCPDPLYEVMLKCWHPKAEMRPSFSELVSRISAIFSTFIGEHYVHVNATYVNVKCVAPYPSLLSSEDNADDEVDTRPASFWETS
EXPERIMENTAL_PROTOCOL: affinity on HUVEC against affinity on Detroit-562, flow cytometry, pH 7.4
ENDPOINT_LABEL: Fold Avidity

>>> observed_result("MYT5309 (antibody, V domains shown, Emibetuzumab variant) VH: QVQLVQSGAEVKKPGASVKVSCKASGYTFTHYYMHWVRQAPGQGLEWMGRVNPNRRGTTYNQKFEGRVTMTTDTSTSTAYMELRSLRSDDTAVYYCARANWLDYWGQGTTVTVSS VL: DIQMTQSPSSLSASVGDRVTITCSVSSSVSSIYLHWYQQKPGKAPKLLIYSTSNLASGVPSRFSGSGSGTDFTLTISSLQPEDFATYYCQHYSGYPLTFGGGTKVEIKR")
"> 50 fold"
>>> observed_result("MYT4837 (antibody, V domains shown, Emibetuzumab variant) VH: QVQLVQSGAEVKKPGASVKVSCKASGYTFTHYYMHWVRQAPGQGLEWMGRVNPHRRHTTYNQKFEGRVTMTTDTSTSTAYMELRSLRSDDTAVYYCARANWLDYWGQGTTVTVSS VL: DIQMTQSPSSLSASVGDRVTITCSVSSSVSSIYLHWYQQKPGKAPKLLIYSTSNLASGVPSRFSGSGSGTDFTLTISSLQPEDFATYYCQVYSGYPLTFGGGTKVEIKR")
"> 100 fold"
>>> observed_result("MYT5351 (antibody, V domains shown, P3D12 variant) VH: QVQLVQSGAEVKKPGASVKVSCKASGYTFTSYWMHWVKQAPGQGLDWIGHIKPSTDNTEYNQKFKDKATLTADKSTSTAYMELSSLRSEDTAVYYCARSYGNYPLMDYWGQGTTVTVSS VL: QIVLTQSPAILSLSPGERATLSCSASSSVTSNYLYWYQQKPGSSPKLLIYSHSNLASGVPARFSGSGSGTSYTLTISSLEAEDAASYFCHQWSSYPPTFGSGTKLEIKR")
"> 200 fold"
>>> observed_result("MYT4325 (antibody, V domains shown, P3D12 variant) VH: QVQLVQSGAEVKKPGASVKVSCKASGYTFTSYWMHWVKQAPGQGLDWIGYIKPSTDNTHYNQKFKDKATLTADKSTSTAYMELSSLRSEDTAVYYCARSYGHYPLMHYWGQGTTVTVSS VL: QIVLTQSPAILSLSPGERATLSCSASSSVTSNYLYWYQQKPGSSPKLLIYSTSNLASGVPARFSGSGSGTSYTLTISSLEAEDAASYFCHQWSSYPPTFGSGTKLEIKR")
"> 220 fold"

Query binder follows.
query: GET /values?readout=Fold Avidity&item= MYT4305 (P3D12) (antibody, V domains shown, Human IgG1; also called P3D12 anti-cMET) VH: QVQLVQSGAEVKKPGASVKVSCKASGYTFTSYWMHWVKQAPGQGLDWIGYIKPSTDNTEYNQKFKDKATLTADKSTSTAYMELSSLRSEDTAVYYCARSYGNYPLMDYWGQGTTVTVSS VL: QIVLTQSPAILSLSPGERATLSCSASSSVTSNYLYWYQQKPGSSPKLLIYSTSNLASGVPARFSGSGSGTSYTLTISSLEAEDAASYFCHQWSSYPPTFGSGTKLEIK
result: 0.7 fold
